Target: UniProt:Q12884
Sequence (Q12884 whole entry): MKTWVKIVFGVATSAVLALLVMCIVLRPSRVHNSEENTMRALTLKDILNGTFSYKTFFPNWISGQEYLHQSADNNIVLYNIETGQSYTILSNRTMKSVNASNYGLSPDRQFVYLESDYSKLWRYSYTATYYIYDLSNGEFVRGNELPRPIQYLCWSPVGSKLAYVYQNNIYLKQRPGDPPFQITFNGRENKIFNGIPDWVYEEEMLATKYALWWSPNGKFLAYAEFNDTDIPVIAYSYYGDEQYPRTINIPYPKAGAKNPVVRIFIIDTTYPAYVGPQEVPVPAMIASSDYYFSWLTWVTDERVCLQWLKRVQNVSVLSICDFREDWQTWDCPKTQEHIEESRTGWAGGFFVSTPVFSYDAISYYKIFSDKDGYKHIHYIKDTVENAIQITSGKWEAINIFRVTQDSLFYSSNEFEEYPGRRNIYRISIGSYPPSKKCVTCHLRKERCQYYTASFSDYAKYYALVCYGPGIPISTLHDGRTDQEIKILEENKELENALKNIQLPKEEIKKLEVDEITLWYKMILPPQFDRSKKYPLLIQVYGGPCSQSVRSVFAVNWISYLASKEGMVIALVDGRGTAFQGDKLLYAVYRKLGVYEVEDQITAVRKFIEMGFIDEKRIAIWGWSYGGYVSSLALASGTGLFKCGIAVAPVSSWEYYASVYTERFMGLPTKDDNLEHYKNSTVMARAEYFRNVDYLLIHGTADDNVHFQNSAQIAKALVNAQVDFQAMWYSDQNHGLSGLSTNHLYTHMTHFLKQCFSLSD
Assay: Inhibition of FAP (unknown origin) at 1 uM TR-FRET assay relative to control
assay-readout: inhibition (%)
One number for each entry, in %.

# compound-string, reading-unit, inhibition
rows = [
    ("N#C[C@@H]1CC(F)(F)CN1C(=O)CNC(=O)c1csc(Cc2ccc(F)cc2Cl)n1", "%", 95.9),
    ("N#C[C@@H]1CC(F)(F)CN1C(=O)CNC(=O)c1csc(-c2ccc(Cl)cc2)n1", "%", 86.7),
    ("N#C[C@@H]1CC(F)(F)CN1C(=O)CNC(=O)c1csc(Cc2ccc(-c3ccc(Cl)cc3)cc2)n1", "%", 93.8),
]

Fill in inhibition for each of the 3 compounds listed.
1. N#C[C@@H]1CC(F)(F)CN1C(=O)CNC(=O)c1csc(Cc2ccc(-n3cccn3)cc2)n1
2. CSc1ccc(Cc2nc(C(=O)NCC(=O)N3CC(F)(F)C[C@H]3C#N)cs2)cc1
3. COc1ccc(Cc2nc(C(=O)NCC(=O)N3CC(F)(F)C[C@H]3C#N)cs2)cc1

1: 98.8; 2: 99; 3: 98
